Listing: pIC50 of selected compounds
- tested_system: HCV NS5B RdRp genotype 1b (Hepatitis C virus genotype 1b, UniProt Q9WMX2)
- Construct: The protein was expressed with an 18 amino acid C-terminal truncation to enhance the solubility; made in house; host or cells: E. coli BL21(DE3), pET21a vector
- Sequence (Q9WMX2 2420-2992): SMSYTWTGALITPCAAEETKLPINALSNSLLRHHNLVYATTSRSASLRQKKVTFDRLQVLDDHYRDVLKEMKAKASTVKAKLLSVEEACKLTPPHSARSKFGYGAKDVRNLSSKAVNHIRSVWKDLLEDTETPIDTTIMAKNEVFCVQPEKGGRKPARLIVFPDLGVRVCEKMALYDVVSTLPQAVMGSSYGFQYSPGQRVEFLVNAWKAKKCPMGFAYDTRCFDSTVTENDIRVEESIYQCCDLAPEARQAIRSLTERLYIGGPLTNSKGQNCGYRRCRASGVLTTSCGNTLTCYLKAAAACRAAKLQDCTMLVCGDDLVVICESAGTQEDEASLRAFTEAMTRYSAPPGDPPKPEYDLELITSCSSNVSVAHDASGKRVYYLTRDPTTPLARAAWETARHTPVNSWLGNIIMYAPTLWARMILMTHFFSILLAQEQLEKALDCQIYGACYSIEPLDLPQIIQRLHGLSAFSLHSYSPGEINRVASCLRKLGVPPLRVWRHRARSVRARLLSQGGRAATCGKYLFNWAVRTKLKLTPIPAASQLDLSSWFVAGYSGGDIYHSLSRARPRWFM
- assay_method_text: Standard HCV NS5B RdRp enzyme assay
- Assay type: biochemical
- condition_notes: Table 1a; HCV NS5B RdRp genotype 1b; read-out: IC50
pIC50: −log10 of the molar value.

compound	tested_system	pIC50
C=C[C@@H]1C[C@]1(NC(=O)c1cccc(-c2ccc3oc(-c4ccc(F)cc4)c(C(=O)NC)c3c2)c1)C(=O)NS(=O)(=O)C1CC1	HCV NS5B RdRp genotype 1b (Hepatitis C virus genotype 1b, UniProt Q9WMX2)	6.00 to 6.60

Recorded result, CNC(=O)c1c(-c2ccc(F)cc2)oc2ccc(-c3ccc(C(=O)N(C)CCC#N)cc3)cc12 , pIC50: 5.00 to 6.00

Recorded result, CNC(=O)c1c(-c2ccc(F)cc2)oc2ccc(-c3cccc(C(=O)NC(C)(C)c4cccc5ccccc45)c3)cc12 , pIC50: 6.00 to 6.60

* * *

- Test system: HCV replicon cells
- assay_method_text: HCV replicon FRET / luciferase assay (96-well plates)
- Type: cell-based
- condition_notes: Hepatitis C virus, Table 1b; HCV replicon; read-out: EC50
pEC50: −log10 of the molar value.
measured_endpoint: pEC50

Solved cases (4 shown):
molecule	pEC50
CNC(=O)c1c(-c2ccc(F)cc2)oc2ccc(-c3cc(C(=O)NCC(C)C)ccc3OCCN(Cc3ccccc3)Cc3ccccc3)cc12	5.00 to 6.00
CNC(=O)c1c(-c2ccc(F)cc2)oc2ccc(-c3cc(C(=O)O)c(C)cc3C)c(F)c12	< 5.00
CNC(=O)c1c(-c2ccc(F)cc2)oc2ccc(-c3cc(C(=O)NC(C)(C)C4CC4)ccc3C)cc12	> 6.60
CNC(=O)c1c(-c2ccc(F)cc2)oc2ccc(-c3cc(OCc4nnc(C)o4)cc(C(=O)NCC(C)C)c3)cc12	5.00 to 6.00

Recorded result, CNC(=O)c1c(-c2ccc(F)cc2)oc2ccc(-c3cccc(C(=O)NC(C)(C)C(=O)Nc4cc(C)[nH]n4)c3)cc12 , pEC50: > 6.60

Recorded result, CNC(=O)c1c(-c2ccc(F)cc2)oc2ccc(-c3cc(C(=O)NC4(c5nnc(-c6ccccc6OC)[nH]5)CC4)ccc3C)cc12 , pEC50: > 6.60

Recorded result, CNC(=O)c1c(-c2ccc(F)cc2)oc2ccc(-c3cc(C(=O)NC4(c5ccn(C)n5)CC4)ccc3C)cc12 , pEC50: > 6.60

Recorded result, CNC(=O)c1c(-c2ccc(F)cc2)oc2cc([N+](=O)[O-])c(-c3cccc(C(=O)NCC(C)C)c3)cc12 , pEC50: > 6.60

Recorded result, CNC(=O)c1c(-c2ccc(F)cc2)oc2ccc(-c3cc(C(=O)NCC(C)C)ccc3OCCN3CCCCC3)cc12 , pEC50: > 6.60

* * *

- tested_system: HCV NS5B RdRp genotype 1b (Hepatitis C virus genotype 1b, UniProt Q9WMX2)
- Construct: The protein was expressed with an 18 amino acid C-terminal truncation to enhance the solubility; made in house; host or cells: E. coli BL21(DE3), pET21a vector
- assay_method_text: Standard HCV NS5B RdRp enzyme assay
- Format: biochemical
- condition_notes: Table 1b; HCV NS5B RdRp genotype 1b; read-out: IC50
pIC50: −log10 of the molar value.
measured_endpoint: pIC50

molecule	pIC50
CNC(=O)c1c(-c2ccc(F)cc2)oc2ccc(-c3cccc(-c4nc(C(C)C)no4)c3)cc12	< 5.86
CNC(=O)c1c(-c2ccc(F)cc2)oc2ccc(-c3cc(OCc4ccco4)cc(C(=O)NCC(C)C)c3)cc12	5.00 to 6.00
CNC(=O)c1c(-c2ccc(F)cc2)oc2cc(N(CCO)S(C)(=O)=O)c(-c3cccc(C(=O)NC4(c5ccccc5)CC4)c3)cc12	> 6.60
CNC(=O)c1c(-c2ccc(F)cc2)oc2cc([N+](=O)[O-])c(-c3cc(C(=O)NC4(c5ccccc5)CC4)ccc3F)cc12	> 6.60
CNC(=O)c1c(-c2ccc(F)cc2)oc2ccc(-c3cc(C(=O)NCC(C)C)ccc3OCCO)cc12	> 6.60

Recorded result, CNC(=O)c1c(-c2ccc(F)cc2)oc2ccc(-c3cc(C(=O)NC(C)(C)c4ccccc4)ccc3OC)cc12 [drawing 355] , pIC50: > 6.60

Recorded result, CNC(=O)c1c(-c2ccc(F)cc2)oc2ccc(-c3cc(C(=O)NC4(c5ccccc5)CC4)ccc3O)cc12 , pIC50: > 6.60

Recorded result, CNC(=O)c1c(-c2ccc(F)cc2)oc2ccc(-c3cc(OCCN(C)C)cc(C(=O)NCC(C)C)c3)cc12 , pIC50: 6.00 to 6.60

Recorded result, CCC(O)COc1ccc(C(=O)NCC(C)C)cc1-c1ccc2oc(-c3ccc(F)cc3)c(C(=O)NC)c2c1 (stereo not shown) , pIC50: 6.00 to 6.60

Recorded result, CNC(=O)c1c(-c2ccc(F)cc2)oc2ccc(-c3ccc(-c4cccc(CC#N)c4)c(C(=O)NCC(C)C)c3)cc12 , pIC50: > 6.60
